- protocol: RP-HPLC retention as measure of hydrophobicity
- Assay type: physicochemical
- assay.setup: RP-HPLC retention time used as measure of hydrophobicity; C18 column, linear gradient 10–90% acetonitrile in water with 0.1% TFA in 40 min, 1.8 mL/min
Where a SMILES comes first, the peptide text is derived from it. [ ]: non-standard residue; d: D form.
recorded.endpoint: retention time
Remember to quote the unit after the number.

Please report retention time for the following compound: CC(C)C[C@H](NC(=O)[C@H](CC(C)C)NC(=O)[C@@H](Cc1c[nH]cn1)NC(=O)[C@H](CC(C)C)NC(=O)[C@H](CC(C)C)NC(=O)[C@H](Cc1c[nH]cn1)NC(=O)[C@@H](Cc1c[nH]cn1)NC(=O)[C@@H](CC(C)C)NC(=O)[C@H](CC(C)C)NC(=O)[C@@H](Cc1c[nH]cn1)NC(=O)[C@H](Cc1c[nH]cn1)NC(=O)[C@H](CC(C)C)NC(=O)[C@@H](CC(C)C)NC(=O)[C@H](Cc1c[nH]cn1)NC(=O)[C@@H](N)CC(C)C)C(N)=O [D,L-H6L9] (H-LH[dL]LH[dH]L[dL][dH]HLL[dH]LL-NH2; N-terminus assumed)
29.3 min

----------
- System: S. enterica serovar Typhimurium 14 028s phoP and PmrAB knockout
- Assay type: cell-based
- assay.setup: broth microdilution, serial twofold dilution in MNMM, 18–20 h at 37 °C with agitation, read by visible turbidity; phoP and PmrAB double knockout
Where a SMILES comes first, the peptide text is derived from it. [ ]: non-standard residue; d: D form. The star is where a group is joined. Octanoyl = CCCCCCCC(=O)*
recorded.endpoint: MIC, DKO (µM)
Supply the numeric figure in µM, leaving out any unit text.

Record excerpt, results attached:
CCCCCCCC(=O)N[C@@H](CCCCN)C(=O)N[C@@H](CCCCN)C(=O)N[C@H](CC(C)C)C(=O)N[C@H](CC(C)C)C(=O)N[C@@H](CCCCN)C(=O)N[C@@H](CC(C)C)C(=O)N[C@@H](CC(C)C)C(=O)N[C@H](CC(C)C)C(=O)N[C@@H](CCCCN)C(=O)N[C@H](CC(C)C)C(=O)N[C@@H](CC(C)C)C(=O)N[C@@H](CCCCN)C(N)=O [C8-D,L-K5L7] (Octanoyl-KK[dL][dL]KLL[dL]K[dL]LK-NH2) ... 3.125
CC(C)C[C@H](NC(=O)[C@H](CC(C)C)NC(=O)[C@@H](CCCCN)NC(=O)[C@H](CC(C)C)NC(=O)[C@H](CC(C)C)NC(=O)[C@H](CCCCN)NC(=O)[C@@H](CCCCN)NC(=O)[C@@H](CC(C)C)NC(=O)[C@H](CC(C)C)NC(=O)[C@@H](CCCCN)NC(=O)[C@H](CCCCN)NC(=O)[C@H](CC(C)C)NC(=O)[C@@H](CC(C)C)NC(=O)[C@H](CCCCN)NC(=O)[C@@H](N)CC(C)C)C(N)=O [D,L-K6L9] (H-LK[dL]LK[dK]L[dL][dK]KLL[dK]LL-NH2; N-terminus assumed) ... 0.78

# next compound below
Using known records, supply MIC, DKO for CC(C)C[C@H](NC(=O)[C@H](CCCCN)NC(=O)[C@@H](CC(C)C)NC(=O)[C@@H](CC(C)C)NC(=O)[C@H](CCCCN)NC(=O)[C@@H](N)CCCCN)C(=O)N[C@@H](CC(C)C)C(=O)N[C@H](CC(C)C)C(=O)N[C@@H](CCCCN)C(=O)N[C@H](CC(C)C)C(=O)N[C@@H](CC(C)C)C(=O)N[C@@H](CCCCN)C(N)=O [D,L-K5L7] (H-KK[dL][dL]KLL[dL]K[dL]LK-NH2; N-terminus assumed)
3.125

----------
- protocol: RP-HPLC retention as measure of hydrophobicity
- Type: physicochemical
- assay.setup: RP-HPLC retention time used as measure of hydrophobicity; C18 column, linear gradient 10–90% acetonitrile in water with 0.1% TFA in 40 min, 1.8 mL/min
- Description: The peptides were synthesized by a solid phase method on a rink amide MBHA resin using an ABI 433A automatic peptide synthesizer (Applied Biosystems). The resin-bound peptides (0.1 mequiv each) were cleaved from the resins by trifluoroacetic acid (TFA), washed with dry ether, and extracted with acetonitrile/water (50% v/v). All peptides were amidated at their C terminus. […]
Where a SMILES comes first, the peptide text is derived from it. [ ]: non-standard residue; d: D form. The star is where a group is joined. Octanoyl = CCCCCCCC(=O)*
Attribute: retention time

Would you please look over these solved cases?
CC(C)C[C@H](NC(=O)[C@H](CCCCN)NC(=O)[C@@H](CC(C)C)NC(=O)[C@@H](CC(C)C)NC(=O)[C@H](CCCCN)NC(=O)[C@@H](N)CCCCN)C(=O)N[C@@H](CC(C)C)C(=O)N[C@H](CC(C)C)C(=O)N[C@@H](CCCCN)C(=O)N[C@H](CC(C)C)C(=O)N[C@@H](CC(C)C)C(=O)N[C@@H](CCCCN)C(N)=O [D,L-K5L7] (H-KK[dL][dL]KLL[dL]K[dL]LK-NH2; N-terminus assumed) ... 23.5 min
CC(C)C[C@H](NC(=O)[C@H](CC(C)C)NC(=O)[C@@H](CCCCN)NC(=O)[C@H](CC(C)C)NC(=O)[C@H](CC(C)C)NC(=O)[C@H](CCCCN)NC(=O)[C@@H](CCCCN)NC(=O)[C@@H](CC(C)C)NC(=O)[C@H](CC(C)C)NC(=O)[C@@H](CCCCN)NC(=O)[C@H](CCCCN)NC(=O)[C@H](CC(C)C)NC(=O)[C@@H](CC(C)C)NC(=O)[C@H](CCCCN)NC(=O)[C@@H](N)CC(C)C)C(N)=O [D,L-K6L9] (H-LK[dL]LK[dK]L[dL][dK]KLL[dK]LL-NH2; N-terminus assumed) ... 27.7 min

Here is another compound to look at.
Report measured retention time; entry is CCCCCCCC(=O)N[C@@H](CCCCN)C(=O)N[C@@H](CCCCN)C(=O)N[C@H](CC(C)C)C(=O)N[C@H](CC(C)C)C(=O)N[C@@H](CCCCN)C(=O)N[C@@H](CC(C)C)C(=O)N[C@@H](CC(C)C)C(=O)N[C@H](CC(C)C)C(=O)N[C@@H](CCCCN)C(=O)N[C@H](CC(C)C)C(=O)N[C@@H](CC(C)C)C(=O)N[C@@H](CCCCN)C(N)=O [C8-D,L-K5L7] (Octanoyl-KK[dL][dL]KLL[dL]K[dL]LK-NH2)
29.1 min

----------
- Tested on: S. enterica serovar Typhimurium 14 028s phoP and PmrAB knockout
- Type: cell-based
- assay.setup: broth microdilution, serial twofold dilution in MNMM, 18–20 h at 37 °C with agitation, read by visible turbidity; phoP and PmrAB double knockout
Where a SMILES comes first, the peptide text is derived from it. [ ]: non-standard residue; d: D form.
recorded.endpoint: MIC, DKO (µM)
Number only, in µM; omit the unit.

Provide only the value of recorded MIC, DKO for CC(C)C[C@H](NC(=O)[C@H](CC(C)C)NC(=O)[C@@H](Cc1c[nH]cn1)NC(=O)[C@H](CC(C)C)NC(=O)[C@H](CC(C)C)NC(=O)[C@H](Cc1c[nH]cn1)NC(=O)[C@@H](Cc1c[nH]cn1)NC(=O)[C@@H](CC(C)C)NC(=O)[C@H](CC(C)C)NC(=O)[C@@H](Cc1c[nH]cn1)NC(=O)[C@H](Cc1c[nH]cn1)NC(=O)[C@H](CC(C)C)NC(=O)[C@@H](CC(C)C)NC(=O)[C@H](Cc1c[nH]cn1)NC(=O)[C@@H](N)CC(C)C)C(N)=O [D,L-H6L9] (H-LH[dL]LH[dH]L[dL][dH]HLL[dH]LL-NH2; N-terminus assumed)
50

----------
- protocol: RP-HPLC retention as measure of hydrophobicity
- Format: physicochemical
- assay.setup: percent of acetonitrile at the retention time; RP-HPLC, C18 column, linear gradient 10–90% acetonitrile in water with 0.1% TFA in 40 min, 1.8 mL/min
Where a SMILES comes first, the peptide text is derived from it. [ ]: non-standard residue; d: D form.
recorded.endpoint: relative hydrophobicity (% ACN)
Express it in % ACN; write the number only.

Name the recorded relative hydrophobicity (% ACN) of the compound listed here: CC(C)C[C@H](NC(=O)[C@H](CCCCN)NC(=O)[C@@H](CC(C)C)NC(=O)[C@@H](CC(C)C)NC(=O)[C@H](CCCCN)NC(=O)[C@@H](N)CCCCN)C(=O)N[C@@H](CC(C)C)C(=O)N[C@H](CC(C)C)C(=O)N[C@@H](CCCCN)C(=O)N[C@H](CC(C)C)C(=O)N[C@@H](CC(C)C)C(=O)N[C@@H](CCCCN)C(N)=O [D,L-K5L7] (H-KK[dL][dL]KLL[dL]K[dL]LK-NH2; N-terminus assumed)
57
